The measurements presented in this section are drawn from PubChem BioAssay (NCI).

System: 786-0 renal
TEST_PROTOCOL: NCI tumour cell line growth inhibition, 48 h
MEASURED_ATTRIBUTE: TGI

IN: Indicate its recorded TGI; the compound in question is `CCCCC/C=C/C(=O)CCc1ccc(O)c(OC)c1`
OUT: 23.6 µM

IN: Indicate its recorded TGI; the compound in question is C=CC(O)C#Cc1cnc(OC)nc1OC (stereo not given)
OUT: > 100 µM

IN: Indicate its recorded TGI; the compound in question is CO[C@]12CC(=O)C3(C(C[C@H]4CC5CCC6=CC(=O)CC[C@]6(OC(C)=O)C5C[C@@]43C)C1)C1C[C@H]3[C@@H]4CCC5=CC(=O)CC[C@]5(OC(C)=O)[C@H]4CC[C@]3(C)C12 (stereo not given in full)
OUT: > 100 µM

IN: Indicate its recorded TGI; the compound in question is `COC(=O)Cc1ccc(Oc2nc3ccccc3nc2-c2cccs2)cc1`
OUT: > 100 µM

IN: Indicate its recorded TGI; the compound in question is `N#Cc1c(-c2ccccc2)n([O-])c2ccccc2[n+]1=O`
OUT: > 100 µM

IN: Indicate its recorded TGI; the compound in question is CCCCC/C=C1\CC(CO)(COC(=O)CC(C(C)C)C(C)C)OC1=O (stereo not given)
OUT: 30.3 µM

IN: Indicate its recorded TGI; the compound in question is `Cc1nc2c(=O)n(C)c(=O)n(C)c2o1`
OUT: > 100 µM

IN: Indicate its recorded TGI; the compound in question is `C=C(C)C[C@H](Sc1nc2ccccc2s1)[C@H](C)O`
OUT: > 100 µM

IN: Indicate its recorded TGI; the compound in question is `CCCCCCCCNC(=O)C1=C(C)NC(C)=C(C(=O)NCCCCCCCC)C1`
OUT: > 100 µM

IN: Indicate its recorded TGI; the compound in question is `CC(C)(C)C1=NC(=S)SC2=NC(=O)C3(NN21)c1ccccc1-c1ccccc13`
OUT: > 10 µM

* * *

Test system: SK-OV-3 ovarian
TEST_PROTOCOL: NCI tumour cell line growth inhibition, 48 h
Where a SMILES comes first, the peptide text is derived from it. [ ]: non-standard residue; d: D form. Ac5c = NC1(C(=O)O)CCCC1
Give TGI for every item shown.

IN: Indicate its recorded TGI; the molecule in question is `COc1cccc(NC(=O)CC(=O)Nc2cccc(OC)c2)c1`
OUT: > 100 µM

IN: Indicate its recorded TGI; the molecule in question is CC(=O)NC(C)(C)C1CC=C(C)/C(=N\O)C1 (stereo unspecified)
OUT: > 100 µM

IN: Indicate its recorded TGI; the molecule in question is `Cc1ccc2c(NCCCN(C)C)c3c(C)nn(C)c3nc2c1`
OUT: 68.7 µM

IN: Indicate its recorded TGI; the molecule in question is CC1OC(=O)C2CC3CCCCC3C(/C=C/C3CCCC(C)N3C)C12 (stereo unspecified)
OUT: > 100 µM

IN: Indicate its recorded TGI; the molecule in question is `Cc1ccc2c(=O)cc(-c3cccc(Cl)c3)[nH]c2n1`
OUT: > 100 µM

IN: Indicate its recorded TGI; the molecule in question is NCC(=O)NC1(C(=O)O)CCCC1 (H-Gly-[Ac5c]-OH)
OUT: > 100 µM

IN: Indicate its recorded TGI; the molecule in question is O=C(C(Br)C(Br)c1ccccc1)C(Br)C(Br)c1ccccc1 (stereo unspecified)
OUT: 19.3 µM

IN: Indicate its recorded TGI; the molecule in question is `CO[C@@H](C(=O)N1Cc2[nH]nc(NC(=O)c3ccc(N4CCN(C)CC4)cc3)c2C1)c1ccccc1`
OUT: > 41.2 µM

IN: Indicate its recorded TGI; the molecule in question is NC(=O)c1ncn2c1NCC1OC2C(O)C1O (stereo unspecified)
OUT: > 100 µM

IN: Indicate its recorded TGI; the molecule in question is `CC[C@@]1(O)C(=O)OCc2c1cc1n(c2=O)Cc2cc3c([N+](=O)[O-])c(OC)ccc3nc2-1`
OUT: 2.49 µM

IN: Indicate its recorded TGI; the molecule in question is `CNCCCNc1c2cc(OC)ccc2nc2cccc([N+](=O)[O-])c12`
OUT: 0.67 µM

* * *

System: HCT-116 colon
TEST_PROTOCOL: NCI tumour cell line growth inhibition, 48 h
MEASURED_ATTRIBUTE: TGI

IN: Specify the recorded TGI for `CN=c1oc2ccccc2cc1C(N)=O` , system: HCT-116 colon.
OUT: > 100 µM

IN: Specify the recorded TGI for `CCOC(=O)c1oc2c(OC)cc(Cl)c3c2c1CCC3` , system: HCT-116 colon.
OUT: > 100 µM

IN: Specify the recorded TGI for `CCCCCCCCNC(=O)C1=C(C)NC(C)=C(C(=O)NCCCCCCCC)C1` , system: HCT-116 colon.
OUT: > 100 µM

IN: Specify the recorded TGI for `CCOC(=O)c1c2c(n(Cc3ccc(Cl)cc3Cl)c1C)-c1nc(Cc3ccccc3)[nH]c1C(=O)C2=O` , system: HCT-116 colon.
OUT: 3.07 µM

IN: Specify the recorded TGI for `CNCCCNc1c2cc(OC)ccc2nc2cccc([N+](=O)[O-])c12` , system: HCT-116 colon.
OUT: 0.15 µM

IN: Specify the recorded TGI for `Nc1[nH]c(=O)nc2c1cnn2Cc1ccccc1` , system: HCT-116 colon.
OUT: > 100 µM

IN: Specify the recorded TGI for `N#CCCN(CCNc1ccccc1)C(=O)Nc1ccc(NC(=O)N(CCC#N)CCNc2ccccc2)cc1` , system: HCT-116 colon.
OUT: > 100 µM

IN: Specify the recorded TGI for COc1ccc(N2C(=O)C3c4[nH]c5ccc(OC)cc5c4C4CCC(C(C)C)CC4C3C2=O)cc1 (stereo unspecified) , system: HCT-116 colon.
OUT: > 100 µM

IN: Specify the recorded TGI for CC12OC3(O)C4C5CC(C6C5C3C61)C42 (stereo unspecified) , system: HCT-116 colon.
OUT: > 100 µM

IN: Specify the recorded TGI for CC(NC(=O)CNP(=O)(c1ccccc1)c1ccccc1)C(=O)NC(Cc1ccccc1)C(=O)OCc1ccccc1 (stereo unspecified) , system: HCT-116 colon.
OUT: > 100 µM

IN: Specify the recorded TGI for `O=C(/C=C\c1ccc(-c2ccccc2)cc1)c1cccs1` , system: HCT-116 colon.
OUT: > 100 µM

IN: Specify the recorded TGI for `CC[N+](C)(CC)CCNC(=O)C(O)(c1ccccc1)c1ccccc1` , system: HCT-116 colon.
OUT: > 100 µM

IN: Specify the recorded TGI for `C=C1C[C@]23CC[C@@H]4C(CO)(CO)CC(=O)C[C@]4(C)[C@@H]2CC[C@H]1C3` , system: HCT-116 colon.
OUT: > 100 µM

IN: Specify the recorded TGI for `COc1ccc(-c2cnoc2-c2ccc(OC)cc2O)cc1` , system: HCT-116 colon.
OUT: 16.5 µM

IN: Specify the recorded TGI for `CCN(CC)CCn1c(N)c(-c2nc3ccccc3n2C)c2nc(C#N)c(C#N)nc21` , system: HCT-116 colon.
OUT: > 18.5 µM

IN: Specify the recorded TGI for `Brc1sc(Br)c2c1[C@H](Br)C[C@@H]2Br` , system: HCT-116 colon.
OUT: > 100 µM

IN: Specify the recorded TGI for `O=Cc1ccc(-c2nccc3c2[nH]c2ccccc23)o1` , system: HCT-116 colon.
OUT: > 100 µM

IN: Specify the recorded TGI for CN1C(c2ccccc2)CC(=NOCc2ccccc2)CC1c1ccccc1 (stereo unspecified) , system: HCT-116 colon.
OUT: 37.6 µM

IN: Specify the recorded TGI for `CC(C)OP(=O)(CCCCCCCCC/C=C/c1ccc2c(c1)OCCOCCOCCOCCO2)OC(C)C` , system: HCT-116 colon.
OUT: 11.2 µM

IN: Specify the recorded TGI for CN(N=O)C(=O)N(N)CCCCC(NC(=O)OCc1ccccc1)C(=O)OCc1ccccc1 (stereo unspecified) , system: HCT-116 colon.
OUT: > 100 µM

IN: Specify the recorded TGI for `CC[C@@]1(O)C(=O)OCc2c1cc1n(c2=O)Cc2cc3c([N+](=O)[O-])c(OC)ccc3nc2-1` , system: HCT-116 colon.
OUT: 1.5 µM

* * *

System: UO-31 renal
TEST_PROTOCOL: NCI tumour cell line growth inhibition, 48 h
Give log10 TGI for every item shown.
# log10 transformed; quantity=TGI; unit=µM

IN: Indicate its recorded log10 TGI; the molecule in question is `O=c1ccc(N=Nc2ccccc2)ccc1Cl`
OUT: 1.32

IN: Indicate its recorded log10 TGI; the molecule in question is COC(=O)CCC(C)[C@H]1CCC2C3C(C[C@H](OC(C)=O)[C@@]21C)[C@@]1(C)CCC2(C[C@H]1C[C@H]3OC(C)=O)OOC1(CCCCCCC1)OO2 (stereo partly specified)
OUT: 1.46

IN: Indicate its recorded log10 TGI; the molecule in question is CNc1ccc(S(=O)Nc2ccc(OC)cc2)cc1 (stereo unspecified)
OUT: 1.54

IN: Indicate its recorded log10 TGI; the molecule in question is `CCCCCCCCCCCCCCCCNC(=O)OC(C)C`
OUT: 0.53

IN: Indicate its recorded log10 TGI; the molecule in question is `CCSc1ccc2c(c1)N(CCCN1CCN(C)CC1)c1ccccc1S2`
OUT: 1.00

IN: Indicate its recorded log10 TGI; the molecule in question is `COc1ccc(NC(=O)C(=O)NO)c(OC)c1`
OUT: 1.47

IN: Indicate its recorded log10 TGI; the molecule in question is `Cn1c2ccccc2c(=NNc2ccc(S(N)(=O)=O)cc2)c2ccccc21`
OUT: 1.61

IN: Indicate its recorded log10 TGI; the molecule in question is `O=C(Cc1ccc(OCc2cccc(Cl)c2)cc1)NO`
OUT: 1.70

IN: Indicate its recorded log10 TGI; the molecule in question is `CCOC(=O)c1ccc(NC(=O)Nc2nccs2)cc1`
OUT: 1.76

IN: Indicate its recorded log10 TGI; the molecule in question is `CCN(CC)CCCN1C(=O)c2c(c(C)c3c(oc4ccc(O)cc43)c2C)C1=O`
OUT: 0.48

IN: Indicate its recorded log10 TGI; the molecule in question is `Cc1ccc(Nc2nc3c(s2)C(=O)c2ccccc2C3=O)cc1`
OUT: 0.61

IN: Indicate its recorded log10 TGI; the molecule in question is `COC(=O)c1c2c(c(C)[n+]([O-])c1C)C(=O)C(NCc1cccc(Cl)c1)=CC2=O`
OUT: 0.51
